assay.target: human LPA1 (Homo sapiens)
Construct: expressed in transfected cells; host or cells: Chinese hamster ovary (CHO) cells
assay.overview: LPA1 functional antagonist assay (LPA-induced calcium flux)
Type: cell-based
conditions: read-out: hLPA1 IC50
Here the recorded IC50 is given for each entry.
Please state the figure in µM; there is no need to write the unit.

Entry Cc1nc(-c2nnn(C)c2COC(=O)N2CC3CCC2C3)ccc1O[C@H]1CCC[C@H](C(=O)O)C1 (stereo partly drawn) — recorded IC50 = 0.325

Entry Cc1nc(-c2nnn(C)c2COC(=O)N(C)Cc2ccccn2)ccc1O[C@H]1CCC[C@H](C(=O)O)C1 — recorded IC50 = 0.211

Entry CC(C1CCC1)N(C)C(=O)OCc1c(-c2ccc(O[C@H]3CCC[C@H](C(=O)O)C3)cc2)nnn1C (mixture of isomers) [Example 54] — recorded IC50 = 0.019

Entry CCCCN(C)C(=O)OCc1c(-c2ccc(O[C@H]3CCC[C@H](C(=O)O)C3)c(F)c2)nnn1C — recorded IC50 = 0.006

New cases:
Entry Cc1nc(-c2nnn(C)c2COC(=O)N(C)Cc2cccnc2)ccc1O[C@H]1CCC[C@H](C(=O)O)C1 — recorded IC50 = 0.809

Entry [2H]C([2H])([2H])n1nnc(-c2ccc(O[C@H]3CCC[C@H](C(=O)O)C3)cn2)c1COC(=O)N(C)CCCC — recorded IC50 = 0.017

---

assay.target: human LPA1 (Homo sapiens, UniProt Q92633)
Construct: expressed in transfected cells; host or cells: Chinese hamster ovary (CHO) cells
Sequence (Q92633 whole entry): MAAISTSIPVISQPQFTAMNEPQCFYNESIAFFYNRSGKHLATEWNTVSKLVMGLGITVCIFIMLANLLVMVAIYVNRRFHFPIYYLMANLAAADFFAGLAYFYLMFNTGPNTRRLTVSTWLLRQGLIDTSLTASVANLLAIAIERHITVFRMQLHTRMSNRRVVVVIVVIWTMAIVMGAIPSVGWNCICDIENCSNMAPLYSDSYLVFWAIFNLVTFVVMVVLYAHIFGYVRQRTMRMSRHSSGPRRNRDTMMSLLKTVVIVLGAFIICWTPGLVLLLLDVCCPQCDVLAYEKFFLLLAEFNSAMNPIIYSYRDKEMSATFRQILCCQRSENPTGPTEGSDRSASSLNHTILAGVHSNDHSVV
assay.overview: LPA1 functional antagonist assay (LPA-induced calcium flux)
Assay type: cell-based
conditions: read-out: hLPA1 IC50
pIC50: −log10 of the molar value.
// label = Condition met if pIC50 is not less than 7, otherwise Condition not met

Observe how each entry below is paired with its result.
Q. Entry Cc1nc(-c2nnn(C)c2COC(=O)N(C)C(C2CC2)C2CC2)ccc1O[C@H]1CCC[C@H](C(=O)O)C1 [Example 86] : is its pIC50 no less than 7?
A. Condition met

Q. Entry CN(CC1CCC1)C(=O)OCc1c(-c2ccc(O[C@H]3CCC[C@](F)(C(=O)O)C3)cn2)nnn1C (racemic) [Example 90] : is its pIC50 no less than 7?
A. Condition met

Q. Entry C[C@@H](C1CC1)N(C)C(=O)OCc1c(-c2ccc(O[C@H]3CCC[C@H](C(=O)O)C3)cc2)nnn1C [Example 52] : is its pIC50 no less than 7?
A. Condition not met

New cases:
Q. Entry CN(CC1CC1)C(=O)OCc1c(-c2ccc(O[C@H]3CCC[C@H](C(=O)O)C3)cc2)nnn1C (racemic) [Example 61] : is its pIC50 no less than 7?
A. Condition not met

Q. Entry CCC1(N(C)C(=O)OCc2c(-c3ccc(O[C@H]4CCC[C@H](C(=O)O)C4)c(C)n3)nnn2C)CC1 [Example 131] : is its pIC50 no less than 7?
A. Condition not met

---

assay.target: human LPA1 (Homo sapiens)
Construct: expressed in transfected cells; host or cells: Chinese hamster ovary (CHO) cells
assay.overview: LPA1 functional antagonist assay (LPA-induced calcium flux)
Format: cell-based
conditions: read-out: hLPA1 IC50
Protocol: The effectiveness of compounds of the present invention as LPA1 inhibitors can be determined in an LPA1 functional antagonist assay as follows: Chinese hamster ovary cells overexpressing human LPA1 were plated overnight (15,000 cells/well) in poly-D-lysine coated 384-well microplates (Greiner bio-one, Cat #781946) in DMEM/F12 medium (Gibco, Cat #11039). […] IC50 values were determined by fitting data to a 4-parameter logistic equation (GraphPad Prism, San Diego Calif.).
endpoint: IC50

Solved cases below.
Entry Cc1cc(-c2nnn(C)c2COC(=O)N(C)C2CCCC2)ccc1O[C@H]1CCC[C@H](C(=O)O)C1 — recorded IC50 = 14 nM

Entry Cc1nc(-c2nnn(C)c2COC(=O)N2CCC(CC3CC3)C2)ccc1O[C@H]1CCC[C@H](C(=O)O)C1 (mixture of isomers) — recorded IC50 = 91 nM

Entry C[C@H](C1CC1)N(C)C(=O)OCc1c(-c2ccc(O[C@H]3CCC[C@H](C(=O)O)C3)cn2)nnn1C — recorded IC50 = 20 nM

Entry Cc1nc(-c2nnn(C)c2COC(=O)N2CCC3CCCC32)ccc1O[C@H]1CCC[C@H](C(=O)O)C1 (stereo partly shown) — recorded IC50 = 180 nM

Entry CN(C(=O)OCc1c(-c2ccc(O[C@@H]3CCC[C@@H](C(=O)NS(C)(=O)=O)C3)cc2)nnn1C)C1CCCC1 — recorded IC50 = 2780 nM

Entry CCCC1(N(C)C(=O)OCc2c(-c3ccc(O[C@H]4CCC[C@H](C(=O)O)C4)cn3)nnn2C)CC1 — recorded IC50 = 61 nM

The record that follows has no IC50 shown yet.
Entry Cc1nc(-c2nnn(C)c2COC(=O)N(C)C2(C)CC(C)C2)ccc1O[C@H]1CCC[C@H](C(=O)O)C1 (single isomer, unassigned) [Example 107] — recorded IC50 = 70 nM
